Numbers sourced from PubChem BioAssay AID330.

- System: P388 leukemia ip, CD2F1 mice, survival T/C
- protocol.description: NCI In Vivo Anticancer Drug Screen. Data for tumor model P388 Leukemia (intraperitoneal) in CD2F1 (CDF1) mice
- run.conditions: endpoint: median survival time; dose: 200.0 mg/kg/injection; schedule: Q01DX005 (ip); vehicle: Klucel (hydroxypropylcellulose) (HPC); higher = longer survival
- Experimental: The antitumor activity of compounds was measured in mice bearing transplantable tumors. Survival or tumor size were measured and the results are expressed as the measurement made in the treated group (T) divided by the measurement made in the vehicle treated control group (C). The tumor model used in this assay is P388 Leukemia (intraperitoneal) in CD2F1 (CDF1) mice
Toxic doses and inconclusive results are not listed. Peptide text beside a SMILES is read from it.
Each item that follows carries a reported T/C.

Example entries begin here.
C=CCn1c(C)nc2c(cnn2C)c1=O; 104 % of control
COc1ccc(CCN2C=CC(C#N)C=C2)cc1OC; 98 % of control
COc1ccc2c(c1OC)C1=NCCc3cc4c(cc3C1(OC)C2=O)OCO4 (stereo not drawn); 98 % of control
CC(C)CC(NC(=O)C(NC(=O)C(N)C(C)O)C(C)C)C(=O)O (stereo not drawn) (H-Thr-Val-Leu-OH; configuration not given here); 104 % of control
COc1cccc(C(=O)c2ccc(OC)cc2C(=O)O)c1; 97 % of control

Which value of T/C has been reported for "COc1ccc2c(c1)OC(C)(C)C(c1ccccc1)=C2c1ccc(OCCBr)c([N+](=O)[O-])c1" in the records? 101 % of control

Then "O=C1c2cccc([N+](=O)[O-])c2C(=O)c2c1oc1ccc3ccccc3c21" ? 96 % of control

Then "CCC(=O)Nc1ccc(C(=O)NCCN(CC)CC)cc1" ? 100 % of control

Then "NC(=S)SCCC(=O)N1CCCC1" ? 101 % of control

Then "CCOC(=O)c1cnc(=O)[nH]c1C(=O)OCC" ? 99 % of control

Then "Cc1ccc(C)c2c(C#Cc3ccccc3)c3ccccc3c(C#Cc3ccccc3)c12" ? 90 % of control

Then CC(=O)SCC(C)C(=O)N1CCCC1C(=O)NC(Cc1ccccc1)C(=O)O (stereo not drawn) ? 104 % of control

Then "COc1cc(N)c2c(c1N)C(=O)c1ccccc1C2=O" ? 97 % of control

* * *

Each item that follows carries a reported T/C.
- Test system: P388 leukemia ip, CD2F1 mice, survival T/C
- protocol.description: NCI In Vivo Anticancer Drug Screen. Data for tumor model P388 Leukemia (intraperitoneal) in CD2F1 (CDF1) mice
- run.conditions: endpoint: median survival time; dose: 12.5 mg/kg/injection; schedule: Q01DX009 (ip); vehicle: distilled water + Tween-80; higher = longer survival
Inconclusive results and toxic doses are left out.

Example entries begin here.
CNC(=O)OCc1cocc1COC(=O)NC; 106 % of control
CCO/C(C)=N\P(=O)(Oc1ccccc1)Oc1ccccc1; 105 % of control
O=[N+]([O-])c1ccc(-c2c[s+]cs2)cc1; 101 % of control
[O-][n+]1c2ccccc2[n+]([O-])c2c(O)cccc21; 121 % of control

// next entry
Which value of T/C has been reported for "COc1ccc(-c2c[s+]cs2)cc1" in the records? 112 % of control

* * *

- Test system: P388 leukemia ip, CD2F1 mice, survival T/C
- protocol.description: NCI In Vivo Anticancer Drug Screen. Data for tumor model P388 Leukemia (intraperitoneal) in CD2F1 (CDF1) mice
- run.conditions: endpoint: median survival time; dose: 60.0 mg/kg/injection; schedule: Q01DX005 (ip); vehicle: saline with Tween-80; higher = longer survival
Toxic doses and inconclusive results are not listed.
Each item that follows carries a reported T/C.

Nc1ncc2c(n1)-c1ccccc1OC2; 92 % of control
FC(F)(F)c1cccc(COCCN2CCN(Cc3cccc(C(F)(F)F)c3)CC2)c1; 103 % of control

// map "CCN(CC)c1c(C)c(C(=O)OC)nn1-c1ccccc1" to recorded T/C (system: P388 leukemia ip, CD2F1 mice, survival T/C) 107 % of control

Then "COCCOCOCCCC#C[Si](C)(C)C" ? 100 % of control

Then CCC(c1ccc(C(C)=O)c(O)c1)C(CC)c1ccc(C(C)=O)c(O)c1 (stereo unspecified) ? 97 % of control

Then "CC(C)(C)C(=O)Nc1c(Cl)c(C2CC2)nn1-c1ccccc1" ? 100 % of control
